FYI, the data here is from the DeepSol protein solubility set.

# experiment-notes: soluble on expression in E. coli; label from the status in PepcDB or PDB records

# sequence-chain, soluble on expression in E. coli
rows = [
    ("MQMLRNVHPVTEIQVSANMAEVRARVDFKVGAKSNIDAEILSFHGLQSDKEHVAVIFKSADTTQEAPLVRMHSECLTGDVFHSSRCDCGEQLEETITRMGQSGGIILYLRQEGRGIGLYNKIDAYRLQSQGMNTYEANNHLGFGDDLRDFTEAAQMLQALGVKKIRLVTNNPKKIRELQEHGIEIVEVVHTSAHIKDGNENYLKAKVSHGKHQLKL", "not soluble"),
    ("MAHHHHHHMKAKGPVKIVLFGAPGVGKGTFAEILSKKEKLKHINMGSILRDEIKNKTTIGREIHKVVTSGNLVADELVVKIVKGEIAKVTAQDGHFKGFILDGFPRNLLQCKQLVEITSIDLFVNIHMPRHILLKKIMGRRICHECNRNFNIAHIRDDPYDMPPILPPPECEKCKGNPKLQRRSDDEEEIVAHRLDTYESTNSHLINFFKNSNCNLVDFEIQRGLRDFDSFYRVVGQHL", "not soluble"),
]

---

# experiment-notes: soluble on expression in E. coli; label from the status in PepcDB or PDB records
readout: soluble on expression in E. coli

# sequence-chain, readout, test-value
records = [
    ("MSIISTKYLLQDAQANGYAVPAFNIHNAETIQAILEVCSEMRSPVILAGTPGTFKHIALEEIYALCSAYSTTYNMPLALHLDHHESLDDIRRKVHAGVRSAMIDGSHFPFAENVKLVKSVVDFCHSQDCSVEAELGRLGGVEDDMSVDAESAFLTDPQEAKRFVELTGVDSLAVAIGTAHGLYSKTPKIDFQRLAEIREVVDVPLVLHGASDVPDEFVRRTIELGVTKVNVATELKIAFAGAVKAWFAENPQGNDPRYYMRVGMDAMKEVVRNKINVCGSANRISA", "soluble on expression in E. coli", "soluble"),
    ("GAMGSMKPYLFDLKLKDTEKLDWKKGLSSYLKKSYGSSQWRTFYDEKATSELDHLRNNANGELAPSSLSEQNLKYYSFLEHLYFRLGSKGSRLKMDFTWYDAEYSSAQKGLKYTQHTLAFEKSCTLFNIAVIFTQIARENINEDYKNSIANLTKAFSCFEYLSENFLNSPSVDLQSENTRFLANICHAEAQELFVLKLLNDQISSKQYTLISKLSRATCNLFQKCHDFMKEIDDDVAIYGEPKWKTTVTCKLHFYKSLSAYYHGLHLEEENRVGEAIAFLDFSMQQLISSLPFKTWLVEFIDFDGFKETLEKKQKELIKDNDFIYHESVPAVVQVDSIKALDAIKSPTWEKILEPYMQDVANKYDSLYRGIIPLDVYEKESIYSEEKATLLR", "soluble on expression in E. coli", "soluble"),
]

---

# experiment-notes: soluble on expression in E. coli; label from the status in PepcDB or PDB records

# sequence-chain, soluble on expression in E. coli
measured = [
    ("MGSDKIHHHHHHMSYVAVKGGSTAIRAAHRLVRKRMRGDPDAPEITPRQICEQMHLGVDRVMAEASLYDEDLAARAMLQAQGDMIEAIFLLRAYRATLTRFLDSTPLAMDTMRVQRRISAAFKELPGGQQLGQTYDYSHRLFGYFDRLETKSDIESGKTEVPPEPMTSVMDLLEKEGLMELAAACEPPAENMQQDITRHPLLFPATRAQRLQSLARGDEGFLLSMAYSTQRGYGQNHPFIAELRMGDVTVEITPPELGFPIEIGTITVTECQMINQFQARSPEEAAFTRGYGLVFGHSERKAIAMALVDRALRAGELGEEALSPAQNEQFVLSHCDNVETTGFVEHLKLPHYVDFQSEIQTLRHLHKTAAKDGADRV", "not soluble"),
    ("LSCLTPDNKPGKCVNIKKCTHLAEIEEDPIGEDETTYLKNSVCAGPEDNSVCCG", "soluble"),
    ("MGHHHHHHSHMKTRQAFYLHTTKLTRIARRLCREILRPWHAARHPYLPINSAAIKAECTARLPEASQSPLVLKQAVRKPLEAVLRYLETHPRPPKPDPVKSVSSVLSSLTPAKVAPVINNGSPTILGKRSYEQHNGVDGNMKKRLLMPSRGLANHGQTRHMGPSRNLLLNGKSYPTKVRLIRGGSLPPVKRRRMNWIDAPDDVFYMATEETRKIRKLLSSSETKRAARRPYKPIALRQSQALPPRPPPPAPVNDEPIVIED", "soluble"),
    ("MSQEIRQNEKISYRIEGPFFIIHLINPDNLNALEGEDYIYLGELLELADRNRDVYFTIIQSSGRFFSSGADFKGIAKAQGDDTNKYPSETSKWVSNFVARNVYVTDAFIKHSKVLICCLNGPAIGLSAALVALCDIVYSINDKVYLLYPFANLGLITEGGTTVSLPLKFGTNTTYECLMFNKPFKYDIMCENGFISKNFNMPSSNAEAFNAKVLEELREKVKGLYLPSCLGMKKLLKSNHIDAFNKANSVEVNESLKYWVDGEPLKRFRQLGSKQRKHRL", "soluble"),
    ("MEEAKQKVVDFLNSKSGSKSKFYFNDFTDLFPDMKQREVKKILTALVNDEVLEYWSSGSTTMYGLKGAGKQAAAEHED", "soluble"),
    ("MAEIDYKKVTGMIHSTESFGSVDGPGIRFIIFMQGCKMRCQYCHNPDTWEMETNNSKERTVEDVLKEALRYKHFWGKDGGITVSGGEAMLQIDFITALFIEAKKLGIHTTLDTCGFAYRATPEYHAILEKLLDVTDLVLLDLKEIDSEQHKIVTRQSNKNILQFARYLSDRGTPVWIRHVLVPGLTDIDDHLKRLGEFVQTLDNVDKFEVLPYHTMGEFKWRELGIPYPLAGVKPPTPERVKNAKDIMKTESYTEYLKRIQN", "soluble"),
    ("MINRPSTVNNPFIGTNAVLRLRQQRLEQSTKPFRARGSRVMRCQQCLLPAINCLCHTIQAQPSRSRVCLVMFDTEPLKPSNTGRIIADILPETQAFRWSRTEPDPQLLATLQDPDVQPYLVFLADAAEEGRQVFQQLPATEKPALFVLLDGTWPEARKMFRKSPYLDNLPILSLNVEALSRYQLREASSAGQHCTAEIAIALLAQAGDIVAADALSQHFDRFRQHYLAGKPHHRLQENLPIVTAQPAESVLEHHHHHH", "not soluble"),
    ("ERNKVESTLLDKVLFLETLVDTIPAPVFYKDREGIYRGCNDLFAKMILGIPKEKVAGCSIDEFLEKIPQELGNVYKRTDRQLLQRGGSLIYESRIMCSDGLLRQFLINKAAYRNLNGDMEGLVGVMLDIT", "not soluble"),
    ("MELKNSISDYTETEFKKIIEDIINCEGDEKKQDDNLEHFISVTEHPSGSDLIYYPEGNNDGSPEAVIKEIKEWRAANGKSGFKQG", "soluble"),
    ("RIVCQFSCGAASAVATKLALADYSATHDVQILNAYLVNEHADSLRFLADCEAWFEQPVTVLRDEKYGADIIEVFRRERFIKKQYGASCTQLLKRRLLDIWKLPGDVMVFGYTAEEADRLEDFRERNPDRPVIAPLIDRGLGKEDCKAMIQRAGIELPVMYRMGYDNANCI", "not soluble"),
    ("MSDWTYSEGALDEAHWPQHYPACGGQRQSPINLQRTKVRYNPSLKGLNMTGYETQAGEFPMVNNGHTVQISLPSTMRMTVADGTVYIAQQMHFHWGGASSEISGSEHTVDGIRHVIEIHIVHYNSKYKSYDIAQDAPDGLAVLAAFVEVKNYPENTYYSNFISHLANIKYPGQRTTLTGLDVQDMLPRNLQHYYTYHGSLTTPPCTENVHWFVLADFVKLSRTQVWKLENSLLDHRNKTIHNDYRRTQPLNHRVVESNFPNQEYTLGSEFQAENLYFQ", "soluble"),
    ("RDSSDDWEIPDGQITVGQRIGSGSFGTVYKGKWHGDVAVKMLNVTAPTPQQLQAFKNEVGVLRKTRHVNILLFMGYSTKPQLAIVTQWCEGSSLYHHLHASETKFEMKKLIDIARQTARGMDYLHAKSIIHRDLKSNNIFLHEDNTVKIGDFGLATVKSRWSGSHQFEQLSGSILWMAPEVIRMQDSNPYSFQSDVYAFGIVLYELMTGQLPYSNINNRDQIIEMVGRGSLSPDLSKVRSNCPKRMKRLMAECLKKKRDERPSFPRILAEIEELARELSG", "soluble"),
    ("MKAVTFPVPWEYLKRIFEGKNVFVKPATLRVEEGMKVIFYASRENQGWHGEAEVERVEYYTSVEEIIKKYRDKLFLTPEELRRYERDRARWDSGRRKRPWMVLVLRNIEKYPRVVKPKKFIVVSGRYVDEKEYEEIRRSTSLEHHHHHH", "soluble"),
    ("MFAERLKELRKREAGLTQERLAMQLGMAKTTLASYEQGKRQPDLETLSKIADRFSVTTDYLLGKNGTPKWATKKDTIDLKDFLEANEGSMTYGGEDLTEEEKQQVRVAMATIFWKRHKHD", "not soluble"),
]
